Value source: PubChem BioAssay (NCI)

- Tested on: UO-31 renal
- Assay explanation: NCI-60 one-dose screen, 48 h (100 = growth as untreated, 0 = no growth, -100 = all killed)
- Condition label: 10 µM
The panel holds about 83,000 compounds, 20% with a hit somewhere; the sample as a whole holds those more often.
I'd be grateful if you could share measured growth for these entries.
Give a bare numeral; the unit % is implied.

COc1ccc2nc3ccccc3c(NCCNCC(C)O)c2c1 (stereo unspecified) yielded growth of 17.9

CN(C)CCN1C(=O)c2cccc3c(-c4ccc5ncn(C6CCCCC6)c5c4)ccc(c23)C1=O yielded growth of 2.42

O=C(/C(=C/c1ccccc1)CN1CCCCC1)c1ccccc1 yielded growth of -93.8

O=C1CC[C@@H]2CCCC[C@@H]2C1 yielded growth of 75.2

O=C1/C(=C/c2ccc(Cl)cc2)SC(=Nc2ccc(Cl)cc2)N1Cc1nc2ccccc2[nH]1 yielded growth of 37.5

C#Cc1ccc(-n2c(/C=C/c3ccc(Cl)c(F)c3)nc3ncccc3c2=O)cc1 yielded growth of -82.5

CCCCCCCNc1nc(C=O)ncc1-c1ccc(C(F)(F)F)cc1 yielded growth of 63.1

CCN(CC)CCC(CNc1c(C)cnc2cc(Cl)ccc12)c1ccc(Cl)c(Cl)c1 (stereo unspecified) yielded growth of 44.5

CC(=O)c1nc2ccccc2n1CCN1CCN(C)CC1 yielded growth of 53.1

NC1(C(=O)O)CSSC1 yielded growth of 57.6

Cc1cn(C2CCCCO2)c(=O)nc1NO (stereo unspecified) yielded growth of 101
